Target: UniProt:O43613
Test: In vitro assay: intracellular calcium measurements (FLIPR), antagonistic activity
Details: CHO cells expressing human orexin-1 receptor, orexin-A agonist, geometric mean, read-out: IC50 Ox1
Description: In Vitro Assay: Intracellular Calcium Measurements: […] Within the Fluorescent Imaging Plate Reader (FLIPR Tetra, Molecular Devices), antagonists are added to the plate in a volume of 10 μl/well, incubated for 120 min and finally 10 μl/well of agonist is added. […] The calculated IC50 values may fluctuate depending on the daily cellular assay performance. […]
pIC50: −log10 of the molar value.
ASSAY METRIC: pIC50

Solved cases (5 shown):
C=C1CC(c2nc3cc4ccccc4cc3[nH]2)N(C(=O)c2cc(C)sc2-c2ccc(C)c(C)c2)C1 (centres unmarked) ... 6.97
COc1ccccc1-c1nc(C(=O)N2CCC[C@@]2(C)c2nc3c(C)c(Cl)ccc3[nH]2)c(-c2ccc(F)cc2)s1 ... 7.27
COc1ccc2nc([C@@H]3CCCN3C(=O)c3nc(C)sc3-c3cccc(Cl)c3)[nH]c2c1 ... 6.44
CO[C@@H]1C[C@@H](c2nc3ccc(Cl)c(C)c3[nH]2)N(C(=O)c2c(-n3nccn3)ccc(C)c2F)C1 ... 7.80
Cc1ccc(C(=O)N2CC[C@H](C)[C@H]2c2nc3c(C)cc(Cl)cc3[nH]2)c(-n2nccn2)c1 ... 8.40

P. Cc1cc(-c2nc(C(=O)N3CCC[C@@]3(C)c3nc4c(C)c(Cl)ccc4[nH]3)c(-c3ccc(F)cc3)s2)ccc1F
Q. Cc1ccc(-c2ncccn2)c(C(=O)N2CC[C@H](C)[C@H]2c2nc3cc(Cl)c(C)cc3[nH]2)c1
(Q) // pick larger pIC50 from pair: P vs Q Answer = label.
(A) Q

----------
Molecular target: human orexin-1 receptor (Homo sapiens (Human))
Sequence (O43613 whole entry): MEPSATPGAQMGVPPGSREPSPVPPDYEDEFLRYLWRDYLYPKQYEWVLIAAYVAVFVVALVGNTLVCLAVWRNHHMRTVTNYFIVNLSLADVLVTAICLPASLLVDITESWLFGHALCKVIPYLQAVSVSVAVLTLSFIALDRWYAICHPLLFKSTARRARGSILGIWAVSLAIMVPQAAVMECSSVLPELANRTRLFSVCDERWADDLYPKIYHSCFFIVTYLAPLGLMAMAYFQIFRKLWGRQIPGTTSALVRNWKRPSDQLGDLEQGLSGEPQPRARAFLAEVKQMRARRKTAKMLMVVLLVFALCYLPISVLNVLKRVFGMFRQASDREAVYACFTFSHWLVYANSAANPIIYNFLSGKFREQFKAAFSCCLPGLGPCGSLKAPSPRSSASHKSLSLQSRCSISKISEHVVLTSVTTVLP
Assay: In vitro assay: intracellular calcium measurements (FLIPR), antagonistic activity
Settings: CHO cells expressing human orexin-1 receptor, orexin-A agonist, geometric mean, read-out: IC50 Ox1
ASSAY METRIC: IC50 (nM)

Cc1ccc(-n2cccn2)c(C(=O)N2CCC[C@@]2(C)c2nc3c(C)c(Cl)ccc3[nH]2)c1 ... 3
C=C1C[C@@H](c2nc3cc(OC)ccc3[nH]2)N(C(=O)c2cnc(C)nc2-c2ccccc2)C1 ... 307
Cc1cc2[nH]c([C@@H]3[C@@H](C)CCN3C(=O)c3c(-c4cccnc4)ccc(C)c3F)nc2cc1Cl ... 16

a. C=C1CC(c2nc3cccc(Cl)c3[nH]2)N(C(=O)c2nc(C3CC3)sc2-c2cccc(C)c2)C1 (racemic)
b. COc1cc(F)ccc1-c1nc(C(=O)N2CCC[C@@]2(C)c2nc3c(C)c(Cl)ccc3[nH]2)c(-c2ccc(F)cc2)s1
(Q) # min-compare on IC50 between a and b Answer = label.
(A) a

I. Cc1ccc(-n2nccn2)c(C(=O)N2CCC[C@@]2(C)c2nc3cc(C)c(C)cc3[nH]2)c1
II. C=C1C[C@@H](c2nc3cc(C)c(C)cc3[nH]2)N(C(=O)c2cc(C)ccc2-n2nccn2)C1
(Q) # min-compare on IC50 between I and II Answer = label.
(A) I
(I: 6 nM, II: 41 nM)

1. CSc1ccc2nc([C@@H]3CCCN3C(=O)c3nc(C)sc3-c3cccc(F)c3)[nH]c2c1
2. Cc1cccc(C(=O)N2CCC[C@@]2(C)c2nc3cc(C(F)(F)F)ccc3[nH]2)c1-n1nccn1
3. Cc1nc(C(=O)N2CCCC2c2nc3cc(OC(F)(F)F)ccc3[nH]2)c(-c2ccccc2)s1 (stereo not shown)
(Q) Arrange items by their IC50 values in increasing order. Please respond by ranking the labels in the order requested.
(A) 3, 1, 2
(3: 90 nM, 1: 157 nM, 2: 368 nM)
